target: Recombinant Human NF-Kappab-Inducing Kinase (NIK/MAP3K14) (Homo sapiens); assay: Inhibition of auto-phosphorylation of recombinant human NIK/MAP3K14 (AlphaScreen); format: biochemical; settings: NIK/MAP3K14 auto-phosphorylation, 5 microM ATP, 1 nM enzyme, 2 h at 25° C.; average of values; read-out: Assay 1 IC50
Sequence (Q99558 whole entry): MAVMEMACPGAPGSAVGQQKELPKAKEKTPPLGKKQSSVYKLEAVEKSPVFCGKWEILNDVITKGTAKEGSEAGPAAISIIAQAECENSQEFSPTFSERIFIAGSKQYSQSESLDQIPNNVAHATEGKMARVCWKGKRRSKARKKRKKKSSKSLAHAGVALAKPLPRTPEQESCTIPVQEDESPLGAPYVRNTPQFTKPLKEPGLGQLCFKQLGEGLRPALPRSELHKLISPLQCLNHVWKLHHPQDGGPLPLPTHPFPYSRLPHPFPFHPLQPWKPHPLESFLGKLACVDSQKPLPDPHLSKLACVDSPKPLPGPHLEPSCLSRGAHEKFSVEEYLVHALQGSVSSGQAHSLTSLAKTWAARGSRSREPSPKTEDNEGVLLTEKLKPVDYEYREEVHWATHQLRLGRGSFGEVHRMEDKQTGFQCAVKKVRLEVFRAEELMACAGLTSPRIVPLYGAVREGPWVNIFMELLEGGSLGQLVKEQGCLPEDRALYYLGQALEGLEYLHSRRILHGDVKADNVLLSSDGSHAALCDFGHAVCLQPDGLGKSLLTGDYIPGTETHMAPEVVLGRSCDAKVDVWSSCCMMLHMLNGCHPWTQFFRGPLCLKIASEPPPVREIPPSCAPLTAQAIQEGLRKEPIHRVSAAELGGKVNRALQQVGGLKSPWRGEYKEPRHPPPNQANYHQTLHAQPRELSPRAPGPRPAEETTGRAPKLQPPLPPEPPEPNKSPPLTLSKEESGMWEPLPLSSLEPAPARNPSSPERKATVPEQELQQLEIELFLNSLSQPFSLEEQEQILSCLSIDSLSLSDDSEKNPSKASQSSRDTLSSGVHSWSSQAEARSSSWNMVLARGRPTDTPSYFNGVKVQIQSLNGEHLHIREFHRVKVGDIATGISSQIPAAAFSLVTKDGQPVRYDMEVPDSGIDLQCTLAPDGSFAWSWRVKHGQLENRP
Reported IC50 values follow for various molecules

- molecule: "CN1CC[C@@](O)(c2cc(-c3cccc(-c4ncnn5cccc45)c3)no2)C1=O"
  IC50: "0.1 to 0.5 µM"
- molecule: "CN1CC[C@@](O)(c2cc(-c3cccc(-c4nc(C(N)=O)c(NC5COC5)s4)c3)no2)C1=O"
  IC50: "< 0.1 µM"
- molecule: "CN1CC[C@@](O)(c2cc(-c3cccc(-c4nc(C(N)=O)n5ccccc45)c3)no2)C1=O"
  IC50: "< 0.1 µM"
- molecule: "CN1CC[C@@](O)(c2cc(-c3ccc(F)c(-c4cc(C5CC5)c(N)c(C(N)=O)n4)c3)no2)C1=O"
  IC50: "< 0.1 µM"
- molecule: "COc1cc(-c2cc(-c3cc([C@]4(O)CCN(C)C4=O)on3)ccc2F)nc2c(N)ncnc12"
  IC50: "< 0.1 µM"
- molecule: "CN1CC[C@@](O)(c2cc(-c3cccc(-c4nc(C(N)=O)c5n4CCN(Cc4ccccc4)C5)c3)no2)C1=O"
  IC50: "> 0.501 µM"
- molecule: "CN1CC[C@@](O)(c2cc(-c3cccc(-c4nc(C(N)=O)c(Br)s4)c3)no2)C1=O"
  IC50: "< 0.1 µM"
- molecule: "CN1CC[C@@](O)(c2cnn(-c3cccc(-c4cccc(C(N)=O)n4)c3)c2)C1=O (single isomer, unassigned)"
  IC50: "> 0.501 µM"
- molecule: "COc1cc(-c2cccc(-c3cc([C@]4(O)CCN(C)C4=O)on3)c2)nc(C(N)=O)c1N"
  IC50: "< 0.1 µM"
- molecule: "CN1CC[C@@](O)(c2cc(-c3cccc(-c4csc(C(N)=O)n4)c3)no2)C1=O"
  IC50: "< 0.1 µM"
- molecule: "CN1CC[C@@](O)(c2cc(-c3cccc(-c4ccn5ncccc45)c3)no2)C1=O"
  IC50: "> 0.501 µM"
- molecule: "CN1CC[C@@](O)(c2cc(-c3cccc(-c4ncnc5sccc45)c3)no2)C1=O"
  IC50: "> 0.501 µM"
- molecule: "CN1CC[C@@](O)(c2cc(-c3cccc(-c4ccc5nccn5c4)c3)no2)C1=O"
  IC50: "> 0.501 µM"
- molecule: "CN1CC[C@@](O)(c2cc(-c3cccc(-c4cnc(N)c(C(N)=O)n4)c3)no2)C1=O"
  IC50: "< 0.1 µM"
- molecule: "CN1CC[C@@](O)(c2cc(-c3cccc(-n4ccc(C(N)=O)n4)c3)no2)C1=O"
  IC50: "< 0.1 µM"
- molecule: "CN1CC[C@@](O)(c2cc(-c3cccc(-c4nc(C(N)=O)c(Nc5ccn(C)n5)s4)c3)no2)C1=O"
  IC50: "< 0.1 µM"
- molecule: "CN1CC[C@@](O)(c2cc(-c3cccc(-c4ccn5cncc5c4)c3)no2)C1=O"
  IC50: "0.1 to 0.5 µM"
- molecule: "CN1CC[C@](O)(c2ncc(-c3cccc(-c4cccc(C(N)=O)n4)c3)s2)C1=O (single isomer, unassigned)"
  IC50: "0.1 to 0.5 µM"
- molecule: "CN1CC[C@](O)(c2cc(-c3cccc(-c4cccc(C(N)=O)n4)c3)no2)C1=O"
  IC50: "> 0.501 µM"
